target: MCH receptor (Homo sapiens); construct: expressed in transfected cells; host or cells: CHO cells; test: MCH Receptor Binding Assay; conditions: membranes from CHO cells expressing the MCH receptor, [125I]-MCH, SPA; class symbols; read-out: MCH Ki
pKi: −log10 of the molar value.
reported.metric: pKi

N#Cc1cccc(-c2ccc(C(=C3CCN(C4CCCC4)CC3)c3nc4cc(Cl)c(Cl)cc4[nH]3)cc2)c1 [Compound 1f] : > 7.70
N#Cc1ccc(-c2ccc(C(=C3CCN(CC4CC4)CC3)c3nc4cc(Cl)c(Cl)cc4[nH]3)cc2)cc1 [Compound 1i] : < 7.00
COc1cc(C(=C2CCNCC2)c2nc3cc(F)c(C(F)(F)F)cc3[nH]2)ccc1-c1cccc(C#N)c1 [Compound 1ab] : < 7.00
N#Cc1cccc(-c2ccc(C(=C3CCN(CC4CC4)CC3)c3nc4cc(Cl)c(Cl)cc4[nH]3)cc2)c1 [Compound 1d] : > 7.70

// next entry
Please tell me: pKi of CC(C)(C)OC(=O)N1CCC2(CC1)CC2(c1ccc(-c2cccc(C#N)c2)cc1)c1nc2cc(F)c(C(F)(F)F)cc2[nH]1 (centres unmarked) [Compound 23a] , system MCH receptor (Homo sapiens)?
< 7.00

====

Ki reference
target: MCH receptor (Homo sapiens); construct: expressed in transfected cells; host or cells: CHO cells; experiment: MCH Receptor Binding Assay; conditions: membranes from CHO cells expressing the MCH receptor, [125I]-MCH, SPA; class symbols; read-out: MCH Ki

CC(C)(C)OC(=O)N1CCC(=C(c2ccc(-c3cccc(C#N)c3)cc2)c2nc3cc(F)c(F)cc3[nH]2)CC1 [Compound 1n] : > 100 nM
Fc1cc(F)cc(-c2ccc(C(=C3CCN(CC4CC4)CC3)c3nc4cc(Cl)c(Cl)cc4[nH]3)cc2)c1 [Compound 1h] : > 100 nM
N#Cc1cccc(-c2ccc(C(=C3CCN(CC4CC4)CC3)c3nc4cc(Cl)cc(Cl)c4[nH]3)cc2)c1 [Compound 1u] : 50 to 100 nM
CN(C)C(=O)N1CCC(=C(c2ccc(-c3cccc(C#N)c3)cc2)c2nc3cc(F)c(C(F)(F)F)cc3[nH]2)CC1 [Compound 1y] : 20 to 50 nM
N#Cc1cccc(-c2ccc(C(=C3CCN(Cc4ccccc4)CC3)c3nc4cc(F)ccc4[nH]3)cc2)c1 [Compound 1a] : > 100 nM
COc1cc(C(=C2CCN(CC3CC3)CC2)c2nc3cc(F)c(C(F)(F)F)cc3[nH]2)ccc1-c1cccc(C#N)c1 [Compound 1aa] : > 100 nM

// next entry
So what does the record say about Ki for N#Cc1cccc(-c2ccc(C(=C3CCN(Cc4ccccc4)CC3)c3nc4cc(F)c(Cl)cc4[nH]3)cc2)c1 [Compound 1b] ?
< 20 nM

====

target: MCH receptor (Homo sapiens, UniProt Q99705); construct: expressed in transfected cells; host or cells: CHO cells; assay: MCH Receptor Binding Assay; conditions: membranes from CHO cells expressing the MCH receptor, [125I]-MCH, SPA; numeric value in text; read-out: Ki value
Sequence (Q99705 whole entry): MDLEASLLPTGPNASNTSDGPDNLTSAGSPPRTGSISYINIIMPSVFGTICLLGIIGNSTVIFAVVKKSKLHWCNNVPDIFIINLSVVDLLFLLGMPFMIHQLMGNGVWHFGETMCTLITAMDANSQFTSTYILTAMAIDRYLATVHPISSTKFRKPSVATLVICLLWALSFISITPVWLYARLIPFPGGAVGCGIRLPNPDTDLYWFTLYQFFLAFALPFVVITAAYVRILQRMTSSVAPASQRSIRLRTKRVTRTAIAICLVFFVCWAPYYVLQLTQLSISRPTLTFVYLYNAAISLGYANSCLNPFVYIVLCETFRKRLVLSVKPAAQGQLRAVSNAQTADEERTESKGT
reported.metric: pKi
# pKi = -log10(concentration in molar units)

So what does the record say about pKi for N#Cc1cccc(-c2ccc(C3(c4nc5cc(F)c(C(F)(F)F)cc5[nH]4)CC34CCNCC4)cc2)c1 (stereo not shown) [Compound 24a] ?
8.77
